method_summary: antimalarial activity against Dd2 strain (AID 2302);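 further: 0% = DMSO untreated growth and 100% = chloroquine plus artemisinin killed control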
test_conditions: P. falciparum Dd2 in RBCs, LDH growth readout, 72 h; at 2 µM; hits give high values
measurement_kind: growth inhibition (%)
Reply with just the number (in %).

Lab note: measured growth inhibition of CN(c1ccc(NC(=O)Nc2cc(C(C)(C)C)on2)cc1)c1ccnc(NCCOC(=O)Nc2cc(C(C)(C)C)on2)n1 was 54

Sure, the documented growth inhibition for CCOC(=O)c1cnc2c(OC)cc(OC)c(Cl)c2c1Nc1cccc(C)c1C is 99

Entry under test: CCN1CCC(N(Cc2ccc(-c3ccc(C(F)(F)F)cc3)cc2)C(=O)Cn2c(CCc3cccc(F)c3F)cc(=O)c3cn(C)nc32)CC1 . Its growth inhibition was 87

For Cc1nc(/N=C(\N)NC(=O)NC2CCCCC2)nc2ccccc12 the compound record lists growth inhibition as 99

Looking up COC(=O)c1cccc(CNCc2cccc(-c3csc(-c4nc5ccccc5[nH]4)c3)c2)c1 , I found its growth inhibition recorded as 44

Sure, the documented growth inhibition for CC(C)N1CCC(NCc2ccc(-c3ccc(Cl)cc3)cc2)CC1 is 48

The reported growth inhibition of the compound COc1ccc(C2C(C(=O)OC3CCCC3)=C(C)NC3=C2C(=O)CCC3)cc1Br (stereo unspecified) was 77

Value of measured growth inhibition for the entry COc1cc2c(cc1OCCN1CCC(N)CC1)N(C(=O)/C=C/c1ccccc1Cl)CC2 : 18

The compound Cc1cccc2[nH]c(-c3ccc(-c4cccc(CNCc5cnn(-c6ccccc6)n5)c4)s3)nc12 showed growth inhibition equal to 58

CCn1c(CN2CCN(Cc3ccccc3)CC2)nc2cc(NC(=O)c3cccs3)ccc21 yielded growth inhibition of 95

The compound Cc1cccn2c(=O)c3cc(C(=O)NCCc4ccccc4)c(=N)n(CCCOC(C)C)c3nc12 showed growth inhibition equal to 40

// recorded growth inhibition for CCN(CCCN1CCCCC1)c1cc(C)nc(Nc2ccc(C)cc2C)n1 : 35

For this compound ( C#CCNCc1ccc(-c2cccc(-c3nc4c(C)cccc4[nH]3)c2)cc1 ), measured growth inhibition is 32

Reported growth inhibition ( COc1ccc(-c2ccc(NC(=O)c3ccc(C#N)cc3)cc2)cc1CN1CCCN(C)CC1 ) = 75

GET /value?item= Cc1ccc(Nc2nc(C)cc(N3CCN(CCc4ccccc4)CC3)n2)cc1 &field=growth inhibition returns 6

Field growth inhibition (entry O=C(Nc1ccc(F)cc1)NC1CCN(CCCCCNC(=O)[C@@H]2C[C@H]2c2ccc(Cl)c(Cl)c2)CC1 ) reads 20

====

Please respond with reported growth inhibition for every item in the list.
method_summary: antimalarial activity against Dd2 strain (AID 2302);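 further: 0% = DMSO untreated growth and 100% = chloroquine plus artemisinin killed control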
test_conditions: P. falciparum Dd2 in RBCs, LDH growth readout, 72 h; at 2 µM; hits give high values
The source made the active and inactive calls.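 The calls were made as follows: active = growth inhibition above 50% at the single 2 µM test dose, taken to imply half-maximal potency below 2 µM; inactive = the rest.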

Record summary for O=C(NC1CCCCC1)c1csc(C2CCCN(C(=O)c3ccc(O)c(-c4cccc(C(F)(F)F)c4)c3)C2)n1 (stereo not given) : reported growth inhibition = 85% (active)

Lab note: measured growth inhibition of O=C(Nc1ccnc2ccccc12)NC1CCN(CCc2ccccc2)CC1 was 43% (inactive)

Just so you know, measured growth inhibition for CN1CCC(C(=O)N(Cc2ccc(-c3ccc(CNCCc4ccccc4)cn3)cc2)C2Cc3ccccc3C2)CC1 came out at 97% (active)

Entry CN(C)CCn1c(=N)n(CC(O)c2ccc(Cl)c(Cl)c2)c2ccccc21 (stereo not given) — recorded growth inhibition = 6% (inactive)

Please fill in: growth inhibition reported for CC1=C(C(=O)Nc2ccc(Cl)cc2)C(c2ccncc2)n2nc(C(F)(F)F)nc2N1 (stereo not given) = 49% (inactive)

# growth inhibition of Cc1cccc2[nH]c(-c3ccc(-c4cccc(CN5CCN(c6ccncc6)CC5)c4)s3)nc12 = 99% (active)

The molecule identified as COc1ccc(-c2cc(C(=O)Nc3ccc4nc(-c5ccccc5)[nH]c4c3)[nH]n2)cc1 registered its growth inhibition at 78% (active)

// field: growth inhibition; key: Cc1cc2nc(-c3ccc(C(=O)NCCCc4ccccc4)cc3)[nH]c2cc1C ; value = 5% (inactive)

Record summary for O=C(/C=C/c1ccc(Cl)cc1)NCCCCCN1CCCC(C(=O)Nc2ccc(Cl)c(Cl)c2)C1 (stereo not given) : reported growth inhibition = 3% (inactive)

Item: O=c1cc(NCCCCNCc2cccc(Cl)c2)[nH]c2ccccc12 | growth inhibition: 41% (inactive)

Briefly, growth inhibition measured for c1ccc(CN2CCN(c3cc(-c4cncc(-c5ccccc5)c4)nc(-c4ccccc4)n3)CC2)cc1 : 12% (inactive)

Entry Cc1cc(N(C)C)nc(Nc2ccc(NC(=O)C3CCCCC3)cc2)n1 — recorded growth inhibition = 68% (active)

What the record says about CN(C)CCCOc1ccc(CNCC(C)(C)c2nc(-c3ccc(Cl)c(O)c3)c(-c3ccncc3)[nH]2)cc1 : growth inhibition is 58% (active)

growth inhibition reading for O=S(=O)(Nc1cccc(CCN2CCC(N3CCCCC3)CC2)c1)c1ccc(-c2ccccc2)cc1 : 49% (inactive)

// sample Cc1cc(NC(=O)CCCN2CCN(c3cccc(Cl)c3Cl)CC2)ccc1N1CCN(C(C)C)CC1 , its growth inhibition was 53% (active)

Looking up N#Cc1cccc(NC(=O)Nc2ccc(-c3ccc(-c4nc5ccc(C(F)(F)F)cc5[nH]4)cc3)cc2)c1 , I see its growth inhibition listed as 100% (active)

Summary for this molecule, O=C(Nc1ccc(-c2nc3ccccc3[nH]2)cc1)c1cccc([N+](=O)[O-])c1 : growth inhibition is 56% (active)

For this molecule ( COc1ccc2nccc([C@@H](O)CN3CCC(NC(=O)/C=C/c4ccc5ccccc5n4)CC3)c2c1 ), measured growth inhibition is 9% (inactive)

Measured growth inhibition of CCCCCC(NCCCC)c1ccc(OCCOc2ccc(C(CCCCC)NCCCC)cc2)cc1 (stereo not given) : 96% (active)

Documented growth inhibition of COc1ccc2nccc([C@@H](O)CN3CCC(NC(=O)C(c4cc5ccccc5o4)N4CCN(c5ccccc5OC)CC4)CC3)c2c1 (stereo not given in full) : 83% (active)

Record CCCN1CCN(CCCCNc2c3ccccc3nc3ccccc23)CC1 . Reported growth inhibition: 0% (inactive)

Entry CC(=O)N1CCN(c2ccc(NC(=O)c3oc(-c4ccccc4)nc3C(F)(F)F)cn2)CC1 — recorded growth inhibition = 93% (active)

Form field growth inhibition, entry CCCCNCc1ccc(-c2nc(CN(CCCn3ccnc3)C(=O)Nc3ccc(CC)cc3)cs2)cc1 : 56% (active)

The recorded growth inhibition for entry CCC1CCc2cc(N)cc(-c3nc4c(c(C)nn4CC)c(=O)[nH]3)c2O1 (stereo not given) equals 42% (inactive)

Given item Cc1cc(NC(=O)Nc2ccc3ncccc3c2)c2ccccc2n1 , the value recorded as its growth inhibition is 27% (inactive)
